Just for reference, patent US10363239B2 is where these values come from.

biological target: FLNA pentapeptide of SEQ ID NO: 1 (Bn-VAKGL) (Homo sapiens); experiment: FITC-NLX-based FLNA screening assay (inhibition of FITC-naloxone binding to Bn-VAKGL on streptavidin plates); settings: read-out: Percent Binding Inhibition, FLNA-binding compound 1 μM; 10 nM FITC-NLX
# Lookup of reported inhibition at 1 µM keyed by entry
Please respond with the number in % and leave the unit unwritten.

COc1c2c(cc3c1C(CC(=O)c1ccc(O)c(C)c1)[N+](C)(C)CC3)OCO2 (centres unmarked) | 55

Item CC(C)c1ccc(S(=O)(=O)N2CCC3(CC2)OCCN3S(=O)(=O)c2ccc(C(C)C)cc2)cc1 with FLNA pentapeptide of SEQ ID NO: 1 (Bn-VAKGL) (Homo sapiens) - inhibition at 1 µM?
48.9

Same question, COc1c2c(cc3c1C(CC(=O)c1cccc(C(F)(F)F)c1)[N+](C)(C)CC3)OCO2 (centres unmarked) this time
61.3

Same question, COc1c2c(cc3c1C(CC(=O)Cc1ccccc1C)[N+](C)(C)CC3)OCO2 (centres unmarked) this time
50.5

Same question, CCOc1ccc(C(=O)CC2c3c(cc4c(c3OC)OCO4)CC[N+]2(C)C)cc1F (centres unmarked) this time
50.6

Same question, COc1ccccc1CCC(=O)CC1c2c(cc3c(c2OC)OCO3)CC[N+]1(C)C (centres unmarked) this time
73.9

Same question, CC1CCC(C(C)C)C(OCC(O)CN2CCCC2)C1 (centres unmarked) this time
52.4

Same question, COCOc1ccc(C(=O)CC2c3c(cc4c(c3OC)OCO4)CC[N+]2(C)C)cc1C (centres unmarked) this time
52.8

Same question, CC1CCC(C(C)C)C(OCC(O)CN2CCCCC2C)C1 (centres unmarked) this time
52.9

Same question, COc1ccc(C(=O)CC2c3c(cc4c(c3OC)OCO4)CC[N+]2(C)C)cc1C (centres unmarked) this time
47.6

Same question, CC(O)c1ccc(S(=O)(=O)N2CCC3(CC2)OCCN3S(=O)(=O)c2ccc(C(C)O)cc2)cc1 (centres unmarked) this time
36.4

Same question, COc1c2c(cc3c1C(CC(O)CCc1ccccc1)[N+](C)(C)CC3)OCO2 (centres unmarked) this time
44.3

Same question, CC(=O)c1ccc(C(=O)N2CCC3(CC2)OCCN3S(=O)(=O)c2ccc(C(C)=O)cc2)cc1 this time
40.8

Same question, COc1c2c(cc3c1C(CC(=O)CCc1ccc(Cl)cc1)[N+](C)(C)CC3)OCO2 (centres unmarked) this time
44.6
